The measurements presented in this section are drawn from patent US20090291081A1.

Target: T1, human IL-1α (human, UniProt P01583 113-271)
T1 construct: also called IL-1alpha; hIL-1α
T1 sequence (looked up): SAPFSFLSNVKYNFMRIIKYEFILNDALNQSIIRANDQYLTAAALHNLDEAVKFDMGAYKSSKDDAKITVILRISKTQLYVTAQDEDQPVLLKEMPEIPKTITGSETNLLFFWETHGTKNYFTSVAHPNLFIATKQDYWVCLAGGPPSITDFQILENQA
Test: Table 62 KD; BIAcore presumed
pKd: −log10 of the molar value.
Quantity kind: pKd

These recorded examples may help you get a feel for the data.
Binder	Reading
ABT1-95-9 (other, VK dAb) VL: DIQMTQSPSSLSASVGDRVTITCRASQPIQGNLRWYQQKPGKAPKLLIYSSSYLERGVPSRFSGSGSGTDFTLTISSLHPEDFATYHCQQGYRWPVTFGQGTKVEIKR	9.00
ABT1-95-13 (other, VK dAb) VL: DIQMTQSPSSLSASVGDRVTITCRASQPIVRNLRWYQQKPGKAPKLLIYSSSYLERGVPSRFSGSGSGTDFTLTISSLQPEDFATYHCQQGYRWPVTFGQGTKVEIKR	9.05

(a) ABT1-95-4 (other, VK dAb) VL: DIQMTQSPSSLSASVGDRVTITCRASQPIVRNLRWYQQKPGKAPKLLIYSSSYLQSGVPSRFSGSGSGTDFTLTISSLQPEDFATYHCQQGYRWPVTFGQGTKVEIKR
(b) ABT1-95-12 (other, VK dAb) VL: DIQMTQSPSSLSASVGDRVTITCRASQPIHGNLRWYQQKPGKAPKLLIYSSSYLESWVPSRFSGSGSGTDFTLTISSLQPEDFATYHCQQGYRWPVTFGQGTKVEIKR
Determine, for a and b , which has the greater value of pKd. // return label of chosen record
b
